Let's look at some binders and their measured Relative Inhibition of IL-13 induced pSTAT6 IC50.
system: T1, hIL-4Rα on cells (human, UniProt P24394 26-825)
T1 sequence: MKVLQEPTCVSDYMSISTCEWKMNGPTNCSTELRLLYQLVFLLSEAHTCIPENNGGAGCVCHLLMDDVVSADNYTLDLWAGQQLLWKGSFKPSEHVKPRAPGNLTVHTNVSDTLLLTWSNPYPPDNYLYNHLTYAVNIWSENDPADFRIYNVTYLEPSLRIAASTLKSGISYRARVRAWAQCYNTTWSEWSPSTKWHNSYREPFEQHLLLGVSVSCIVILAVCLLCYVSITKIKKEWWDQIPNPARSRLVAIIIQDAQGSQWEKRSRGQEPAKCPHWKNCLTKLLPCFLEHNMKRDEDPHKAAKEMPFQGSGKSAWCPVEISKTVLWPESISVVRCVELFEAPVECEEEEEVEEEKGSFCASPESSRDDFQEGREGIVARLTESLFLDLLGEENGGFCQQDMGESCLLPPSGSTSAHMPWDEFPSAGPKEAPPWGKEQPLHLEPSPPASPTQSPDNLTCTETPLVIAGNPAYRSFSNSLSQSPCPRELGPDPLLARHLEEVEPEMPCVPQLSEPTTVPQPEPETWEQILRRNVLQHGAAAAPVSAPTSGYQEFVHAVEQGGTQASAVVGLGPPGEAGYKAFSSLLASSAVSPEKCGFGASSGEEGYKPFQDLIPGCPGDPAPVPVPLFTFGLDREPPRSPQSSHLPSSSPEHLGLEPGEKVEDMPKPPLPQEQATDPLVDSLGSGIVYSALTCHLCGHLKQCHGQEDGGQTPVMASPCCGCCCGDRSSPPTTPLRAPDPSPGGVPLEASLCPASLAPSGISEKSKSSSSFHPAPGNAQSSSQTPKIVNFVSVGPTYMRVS
assay_details: cell-based or functional assay

Solved cases below.
binder | experimental_value
Construct 25 (mAb433) (antibody, IgG4, V domains shown, VH/VL only) VH: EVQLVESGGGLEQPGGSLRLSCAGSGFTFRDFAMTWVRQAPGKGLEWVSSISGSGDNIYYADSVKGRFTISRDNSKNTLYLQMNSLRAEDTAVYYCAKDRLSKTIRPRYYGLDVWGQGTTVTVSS VL: DIVMTQSPLSLPVTPGEPASISCTASQSLLYSIGYNYLDWYLQKSGQSPQLLIYEGNKRASGVPDRFSGSGSGTDFTLKISRVEAEDVGFYYCMQSLTSPYTFGQGTKLEIK | 1.82 relative to dupilumab
Construct 17 (mAb425) (antibody, IgG4, V domains shown, VH/VL only) VH: EVQLVESGGGLEQPGGSLRLSCAGSGFTFRDFAMTWVRQAPGKGLEWVSSISGSGSSTYYADSVKGRFTISRDNSKNTLYLQMNSLRAEDTAVYYCAKDRLSVTVRPRYYGLDVWGQGTTVTVSS VL: DIVMTQSPLSLPVTPGEPASISCTASQSLLYSIGYNYVDWYLQKSGQSPQLLIYLGSKRASGVPDRFSGSGSGTDFTLKISRVEAEDVGFYYCMQAYNSPYTFGQGTKLEIK | 0.863 relative to dupilumab

# lookup: Relative Inhibition of IL-13 induced pSTAT6 IC50 of Construct 27 (mAb435) (antibody, IgG4, V domains shown, VH/VL only) VH: EVQLVESGGGLEQPGGSLRLSCAGSGFTFTDFAMTWVRQAPGKGLEWVSSISGSGGNKYYADSVKGRFTISRDNSKNTLYLQMNSLRAEDTAVYYCAKDRLSVTVRPRYYGLDVWGQGTTVTVSS VL: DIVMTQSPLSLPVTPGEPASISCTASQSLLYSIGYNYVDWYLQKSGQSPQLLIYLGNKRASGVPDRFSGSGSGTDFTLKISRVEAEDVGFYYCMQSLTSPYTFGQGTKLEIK
0.38 relative to dupilumab
